molecular target: N-terminally FLAG-tagged PARP2 (amino acids 1-583) (Homo sapiens, UniProt Q9UGN5); construct: N-terminally FLAG-tagged PARP2 (amino acids 1-583); assay: PARP2 probe displacement HTRF assay; assay type: binding; details: binned Kd, PARP2 probe displacement HTRF
Sequence (Q9UGN5 whole entry, the tested form may be a part): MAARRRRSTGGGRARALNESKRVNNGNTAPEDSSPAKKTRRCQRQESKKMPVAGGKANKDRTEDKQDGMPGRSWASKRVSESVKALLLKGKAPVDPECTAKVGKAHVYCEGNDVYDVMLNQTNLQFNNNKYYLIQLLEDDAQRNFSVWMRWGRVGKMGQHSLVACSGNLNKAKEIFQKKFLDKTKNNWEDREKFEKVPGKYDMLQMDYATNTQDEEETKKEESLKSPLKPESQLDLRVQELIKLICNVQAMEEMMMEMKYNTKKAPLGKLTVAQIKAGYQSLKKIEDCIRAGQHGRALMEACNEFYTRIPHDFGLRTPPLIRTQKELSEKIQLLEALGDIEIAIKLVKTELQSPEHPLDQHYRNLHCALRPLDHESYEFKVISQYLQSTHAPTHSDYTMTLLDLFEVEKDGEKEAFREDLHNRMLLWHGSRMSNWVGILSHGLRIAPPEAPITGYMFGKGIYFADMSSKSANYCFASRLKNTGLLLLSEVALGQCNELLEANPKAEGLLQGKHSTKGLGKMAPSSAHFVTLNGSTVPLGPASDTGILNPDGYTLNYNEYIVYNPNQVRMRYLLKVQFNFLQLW
measured-metric: Kd

CNC(=O)c1ccc(N2CCC(N3CCC(c4nc5c(c(=O)[nH]4)CCCC5)C3)CC2)cn1 (single isomer, unassigned) [Compound 155b]
0.1 to 1 µM
CNC(=O)c1cc(C)c(N2CCC(N3CCC(c4cc5ccc(F)cc5c(=O)[nH]4)C3)CC2)cn1 (single isomer, unassigned) [Compound 202b]
0.01 to 0.1 µM
CCc1cnc(C2CCN(C(=O)C3CCN(c4ccc(C(=O)NC)nc4)CC3)CC2)[nH]c1=O
> 10 µM

Prompt: Give the measured Kd of CNC(=O)c1ccc(N2CCC(N3CCC(c4ccc(Cl)c(=O)[nH]4)C3)CC2)cn1 (single isomer, unassigned) [Compound 201b] .
Completion: 1 to 10 µM

Prompt: Item O=C(NCCF)c1ccc(N2CCC(N3CCCC(c4nc5ccccc5c(=O)[nH]4)C3)CC2)cn1 (single isomer, unassigned) [Compound 110b] has what recorded Kd?
Completion: 0.1 to 1 µM

Prompt: Field request: Kd | item: CNC(=O)c1ccc(N2CCC(N3CCCC(c4nc5ccccc5c(=O)[nH]4)C3)CC2)c(C(F)F)n1 (racemic)
Completion: > 10 µM

Prompt: # query: Kd of entry O=c1[nH]c(C2CCN(C3CCN(c4ccc(Cl)cc4)CC3)C2)nc2ccccc12 (single isomer, unassigned) [Compound 43a]
Completion: 0.1 to 1 µM

Prompt: Form field: reported Kd of CNC(=O)c1ccc(N2CCC(N3CCC(c4nc5[nH]cc(C(F)(F)F)c5c(=O)[nH]4)C3)CC2)cn1 (racemic)
Completion: < 0.01 µM

Prompt: Quick one: Kd for CNC(=O)c1ccc(N2CCC(N3CCC(c4nc5ccccc5c(=O)[nH]4)C3)CC2)c(C)n1 (single isomer, unassigned) [Compound 125a] ?
Completion: 1 to 10 µM

Prompt: Look up Kd for this compound: CNC(=O)c1cc(C)c(N2CCC(N3CCC(c4cc5ccncc5c(=O)[nH]4)C3)CC2)c(C)n1 (racemic)
Completion: 0.1 to 1 µM

Prompt: Consider the compound shown here: CNC(=O)c1ccc(N2CCC(N3CCCC(c4nc5onc(C)c5c(=O)[nH]4)C3)CC2)cn1 (single isomer, unassigned) [Compound 159b] What is its recorded Kd?
Completion: > 10 µM

Prompt: Quick check: Kd of CNC(=O)c1ccc(N2CCC(N3CCC(c4cc5cccc(F)c5c(=O)[nH]4)C3)CC2)c(Cl)n1 (single isomer, unassigned) [Compound 183a] ?
Completion: 1 to 10 µM

Prompt: If you can, please state the reported Kd value of CNC(=O)c1ccc(N2CCC(N3CCC(c4cc5cccc(F)c5c(=O)[nH]4)C3)CC2)c(F)n1 (single isomer, unassigned) [Compound 184b] .
Completion: 0.1 to 1 µM

Prompt: Dear colleague, I am looking for the recorded Kd of the following compound: CNC(=O)c1ccc(N2CCC(CN3CCC(c4nc5ccccc5c(=O)[nH]4)CC3)C2)cn1 (single isomer, unassigned) [Compound 50b]
Completion: > 10 µM

Prompt: Tell me the measured Kd of CNC(=O)c1ccc(N2CCC(N3CCC(c4cc5c(F)ccc(F)c5c(=O)[nH]4)C3)CC2)cn1 (single isomer, unassigned) [Compound 180b] , please.
Completion: 0.01 to 0.1 µM

Prompt: Can you look up the measured Kd of O=C(NCC(F)(F)F)c1ccc(N2CCC(N3CCC(c4nc5ccccc5c(=O)[nH]4)C3)CC2)cn1 (single isomer, unassigned) [Compound 130a] for me?
Completion: 0.1 to 1 µM

Prompt: Entry CNC(=O)c1ccc(N2CCC(N3CCC(c4cc5cccc(F)c5c(=O)[nH]4)C3)CC2)cn1 (single isomer, unassigned) [Compound 136b] has what Kd?
Completion: 0.01 to 0.1 µM

Prompt: Give its Kd value. Item: CNC(=O)c1ccc(N2CCC(N3CCC(Cc4nc5ccccc5c(=O)[nH]4)CC3)CC2)cn1
Completion: 0.1 to 1 µM

Prompt: What value of Kd has been recorded for this entry: N#Cc1ccc(N2CCC(N3CCCC(c4nc5ccccc5c(=O)[nH]4)C3)CC2)nc1 (single isomer, unassigned) [Compound 74a]
Completion: 1 to 10 µM

Prompt: Item CNC(=O)c1ccc(N2CCC(N3CCC(c4nc(C)cc(=O)[nH]4)C3)CC2)cn1 (single isomer, unassigned) [Compound 97b] has what recorded Kd?
Completion: > 10 µM

* * *

A collection of compounds and their measured pKd
biological target: PARP1 (Homo sapiens, UniProt P09874); experiment: NanoBRET cellular target occupancy assay, PARP1; conditions: HEK293 cells transiently transfected with PARP1-NanoLuc fusion; tracer 11 nM; 2 hours at 37° C.; Kd by Cheng-Prussoff
pKd: −log10 of the molar value.

Consider the following illustrative entries.
CNC(=O)c1ccc(N2CCC(N3CCC(c4cc5ccc(F)cc5c(=O)[nH]4)C3)CC2)cn1 (single isomer, unassigned) [Compound 154b]
> 8.00
CNC(=O)c1ccc(N2CCC(N3CCC(c4nc5cccc(C(F)(F)F)c5c(=O)[nH]4)C3)CC2)cn1 (single isomer, unassigned) [Compound 86b]
> 8.00

Please find the next compound below.
Prompt: Would you kindly share the measured pKd for CNC(=O)c1ccc(N2CCC(N3CC4(c5nc6ccccc6c(=O)[nH]5)CC3C4)CC2)c(F)n1 [Compound 260] ?
Completion: > 8.00

* * *

Some compounds, each annotated with its measured pKd.
target: N-terminally FLAG-tagged PARP2 (amino acids 1-583) (Homo sapiens, UniProt Q9UGN5); construct: N-terminally FLAG-tagged PARP2 (amino acids 1-583); test: PARP2 probe displacement HTRF assay; type: binding; settings: binned Kd, probe displacement HTRF
pKd: −log10 of the molar value.

Recorded pKd, per entry:
CCc1ccc(C2CCN(C3CCN(c4ccc(C(=O)NCCF)nc4F)CC3)C2)[nH]c1=O (single isomer, unassigned) [Compound 322a]
< 5.00
CCc1ccc(C2CCN(C3CCN(c4ccc(C(=O)NCCF)nc4F)CC3)C2)[nH]c1=O (single isomer, unassigned) [Compound 322b]
6.00 to 7.00

--- query ---
Prompt: Notebook: pull reported pKd for N-terminally FLAG-tagged PARP2 (amino acids 1-583) (Homo sapiens, UniProt Q9UGN5), entry N#Cc1ccc(N2CCC(N3CCC(c4cc5ccc(F)cc5c(=O)[nH]4)C3)CC2)c(F)c1 (single isomer, unassigned) [Compound 385a]
Completion: 5.00 to 6.00

* * *

Here, each record is paired with measured pKd data.
biological target: full length N-terminally FLAG-tagged PARP1 (Homo sapiens); assay: PARP1 probe displacement HTRF assay; settings: PARP1 HTRF, binned Kd, PARP1 probe displacement HTRF
Sequence (P09874 whole entry): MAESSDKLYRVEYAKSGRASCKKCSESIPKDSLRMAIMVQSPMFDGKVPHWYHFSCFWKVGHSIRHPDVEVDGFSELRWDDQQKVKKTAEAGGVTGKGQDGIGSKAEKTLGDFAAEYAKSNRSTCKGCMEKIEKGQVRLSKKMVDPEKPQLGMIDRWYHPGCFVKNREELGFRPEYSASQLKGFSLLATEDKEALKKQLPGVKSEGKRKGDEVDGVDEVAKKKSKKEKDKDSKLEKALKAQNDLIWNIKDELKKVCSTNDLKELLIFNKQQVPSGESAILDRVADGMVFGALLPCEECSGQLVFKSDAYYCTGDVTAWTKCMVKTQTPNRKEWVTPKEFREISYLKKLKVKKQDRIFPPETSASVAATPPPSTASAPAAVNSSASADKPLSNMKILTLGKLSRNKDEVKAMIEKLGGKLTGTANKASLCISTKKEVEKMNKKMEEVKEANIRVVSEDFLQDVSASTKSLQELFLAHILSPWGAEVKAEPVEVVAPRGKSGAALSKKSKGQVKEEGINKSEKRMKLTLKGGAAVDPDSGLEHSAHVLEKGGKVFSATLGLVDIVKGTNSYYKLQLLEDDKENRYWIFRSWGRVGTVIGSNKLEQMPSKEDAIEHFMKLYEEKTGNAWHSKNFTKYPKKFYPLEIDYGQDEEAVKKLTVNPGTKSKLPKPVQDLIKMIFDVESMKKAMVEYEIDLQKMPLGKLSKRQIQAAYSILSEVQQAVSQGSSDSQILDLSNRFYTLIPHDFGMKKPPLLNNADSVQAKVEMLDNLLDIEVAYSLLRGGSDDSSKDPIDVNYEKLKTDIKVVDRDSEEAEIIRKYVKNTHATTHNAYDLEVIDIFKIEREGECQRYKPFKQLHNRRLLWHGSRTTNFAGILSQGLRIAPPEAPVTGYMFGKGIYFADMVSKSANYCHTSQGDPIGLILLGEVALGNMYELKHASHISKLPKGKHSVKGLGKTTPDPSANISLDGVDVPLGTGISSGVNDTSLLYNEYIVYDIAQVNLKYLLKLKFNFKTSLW
pKd: −log10 of the molar value.

The following compounds have reported results that may help.
CNC(=O)c1ccc(N2CCC(N3CCCC(c4nc5ccccc5c(=O)[nH]4)C3)CC2)cn1 (single isomer, unassigned) [Compound 6b]
6.00 to 7.00
CNC(=O)c1ccc(N2CCC(N3CC(c4nc5ccccc5c(=O)[nH]4)C3)CC2)cn1
7.00 to 8.00
CCc1cnc(-c2cnn(C3CCN(c4ccc(C(=O)NC)nc4)CC3)c2)[nH]c1=O
7.00 to 8.00
CNC(=O)c1ccc(N2CCC(N3CCC(c4cc5cccc(F)c5c(=O)[nH]4)C3)CC2)cn1 (racemic) [Compound 136rac]
> 8.00
CNC(=O)c1ccc(N2CCC(CN3CCC(c4ncc(C(F)(F)F)c(=O)[nH]4)CC3)CC2)cn1
5.00 to 6.00

// below: pKd requested for another compound
Prompt: Look up pKd: CCc1ccc(C2CCN(CC3CCN(c4ccc(C(=O)NC)nc4)CC3)CC2)[nH]c1=O
Completion: 6.00 to 7.00

* * *

# reported Kd; entries follow
target: N-terminally FLAG-tagged PARP2 (amino acids 1-583) (Homo sapiens, UniProt Q9UGN5); construct: N-terminally FLAG-tagged PARP2 (amino acids 1-583); experiment: PARP2 probe displacement HTRF assay; format: binding; details: binned Kd, probe displacement HTRF

Prompt: Form field: reported Kd of CCc1ccc(C2CCN(C3CCN(c4cnc(C(=O)NC)cc4C(F)(F)F)CC3)C2)[nH]c1=O (single isomer, unassigned) [Compound 298a]
Completion: > 10000 nM

Prompt: For the compound shown here, CNC(=O)c1ccc(N2CCC(N3CCC(c4cc5c(c(=O)[nH]4)CCC(=O)N5)C3)CC2)cn1 (single isomer, unassigned) [Compound 309a] , give the reported Kd.
Completion: > 10000 nM

Prompt: Quick one: Kd of CNC(=O)c1cc(Cl)c(N2CCC(N3CCC(c4cc5ccc(F)cc5c(=O)[nH]4)C3)CC2)cn1 (single isomer, unassigned) [Compound 236b] ?
Completion: 10 to 100 nM

Prompt: I'd like to know its Kd. The compound in question is CS(=O)(=O)Nc1ccc(N2CCC(N3CCC(c4cc5ccccc5c(=O)[nH]4)C3)CC2)cn1 (single isomer, unassigned) [Compound 252a]
Completion: 1000 to 10000 nM

Prompt: Tell me the measured Kd of CS(=O)(=O)Nc1ccc(N2CCC(N3CCC(c4cc5ccccc5c(=O)[nH]4)C3)CC2)cn1 (single isomer, unassigned) [Compound 252b] , please.
Completion: 100 to 1000 nM

Prompt: Given CNC(=O)c1ccc(N2CCC(N3CCC(c4nc5c(c(=O)[nH]4)COC5)C3)CC2)cn1 (single isomer, unassigned) [Compound 272b] , state its recorded Kd.
Completion: > 10000 nM
